Experiment: Cell Viability - LYMP2-002 (AID 977);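 also: compound exposure lasted 24 h at 37 °C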
Details: LYMP2-002 lymphoblastoid cell viability, qHTS; series mostly up to 92.2 µM
Results filed as inconclusive are left out. The source made the active and inactive calls. Calls follow the shape of the dose curve; as a rule, active = well fitted cell-killing curve with a large enough effect; inconclusive = small, poorly fitted or top-dose-only effect; inactive = flat fitted curve, though single readings scatter.
Outcome codes: active, inactive

>>> group("O=C/C=C/c1ccccc1")
"inactive"
>>> group("Oc1cc(Cl)c(Cl)cc1Cl")
"inactive"
>>> group("ClCC1CO1 (stereo unspecified)")
"inactive"
>>> group("[O]=[Cd]")
"inactive"
>>> group("[Cl-].[Cl-].[Hg+2]")
"active"
>>> group("CC(C)CCON=O")
"inactive"
>>> group("O=Cc1ccco1")
"inactive"
>>> group("CCCCCCCCOC(=O)c1ccccc1C(=O)OCCCCCCCC")
"inactive"
>>> group("C=CCN=C=S")
"inactive"
>>> group("O=[N+]([O-])c1ccccc1")
"inactive"
>>> group("CCCCCl")
"inactive"
>>> group("C[C@H]1CC[C@@H]2[C@@H](C)[C@H]3[C@H](C[C@H]4[C@@H]5CC=C6CC(O[C@@H]7O[C@H](CO)[C@H](O)[C@H](O[C@@H]8O[C@H](CO)[C@@H](O)[C@H](O)[C@H]8O)[C@H]7O[C@H]7O[C@@H](C)[C@H](O)[C@@H](O)[C@H]7O)CC[C@]6(C)[C@H]5CC[C@]34C)N2C1 (stereo partly specified)")
"active"
>>> group("O=CC=O")
"inactive"
>>> group("O=C1CCO1")
"inactive"
>>> group("ClC(Cl)(Cl)Cl")
"inactive"
>>> group("NNC(N)=O")
"inactive"

====

Test: Cell Viability - LYMP2-009 (AID 968);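 also: cells exposed to compound for 24 h at 37 °C; nearly all actives have a fitted effect of over 55% in size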
Settings: LYMP2-009 lymphoblastoid cell viability; series mostly up to 92.2 µM
Inconclusive results are not listed. The source made the active and inactive calls. Calls come from the whole dose curve; as a rule, active = well fitted cell-killing curve with a large enough effect; inconclusive = small, poorly fitted or top-dose-only effect; inactive = flat fitted curve, though single readings scatter.
Outcome codes: Y (active), N (inactive)

>>> group("ClC(Cl)(Cl)Cl")
"N"
>>> group("[Cl-].[Cl-].[Hg+2]")
"Y"
>>> group("Clc1ccccc1Cl")
"N"
>>> group("[O]=[Cd]")
"N"
>>> group("C=CCN=C=S")
"N"
>>> group("NNC(N)=O")
"N"
>>> group("S=C=S")
"N"
>>> group("O=[N+]([O-])c1ccc(F)c([N+](=O)[O-])c1")
"N"
>>> group("O=Cc1ccco1")
"N"
>>> group("COc1ccc2c(c1OC)C(=O)OC2C1c2cc3c(cc2CCN1C)OCO3 (stereo unspecified)")
"N"
>>> group("CCCCCl")
"N"
>>> group("O=C1CCO1")
"N"
>>> group("CC(C)CCON=O")
"N"
>>> group("ClC=C(Cl)Cl")
"N"
>>> group("COC1=CC(=O)O[C@@H](/C=C/c2ccccc2)C1")
"N"
>>> group("CC(C)Nc1ccc(Nc2ccccc2)cc1")
"Y"

====

Target: Voltage-gated inwardly rectifying potassium channel KCNH2 (Homo sapiens)
Test: qHTS Assay for Small Molecule Inhibitors of the Human hERG Channel Activity (AID 588834);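 also: lower thallium flux fluorescence means stronger hERG block; nearly all actives have a fitted effect of over 50% in size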
Conditions: U2OS BacMam hERG, FluxOR thallium flux fluorescence; series mostly up to 46.1 µM
Records with an inconclusive call do not appear. The source made the active and inactive calls. The call rests on the fitted dose curve; in most records, active means well fitted inhibition curve with a large enough effect; inconclusive means small, poorly fitted or top-dose-only effect; inactive means flat fitted curve, though single readings scatter.
Labels: active, inactive

>>> group("FC(F)OC(F)(F)C(F)Cl (stereo not given)")
"inactive"
>>> group("CC(=O)OC1CN2CCC1CC2 (stereo not given)")
"inactive"
>>> group("Oc1ccc2c3c1O[C@H]1[C@@H](O)CC[C@@]4(O)[C@@H](C2)N(CC2CCC2)CC[C@]314")
"inactive"
>>> group("CC(=O)NBr")
"inactive"
>>> group("Clc1ccc(C(Cn2ccnc2)OCc2csc3c(Cl)cccc23)c(Cl)c1 (stereo not given)")
"active"
>>> group("C[C@]12CC[C@H](OS(=O)(=O)O)CC1=CC[C@@H]1[C@@H]2CC[C@]2(C)C(=O)CC[C@@H]12")
"inactive"
>>> group("OC[C@@H](O)[C@H]1O[C@@H]2O[C@@H](C(Cl)(Cl)Cl)O[C@@H]2[C@H]1O")
"inactive"
>>> group("CC(=O)O[C@H]1CC[C@H]2[C@@H]3CCC4=CC(=O)CCC4=C3C=C[C@]12C")
"inactive"
>>> group("CC(N)Cc1c[nH]c2ccc(OCc3cccs3)cc12 (stereo not given)")
"active"
>>> group("COc1ccc2c(c1)[C@@]13CCCC[C@H]1[C@@H](C2)NCC3")
"active"
>>> group("Oc1ccc2c3c1O[C@H]1c4oc5ccccc5c4C[C@@]4(O)C(C2)N(CC2CC2)CCC314 (stereo not given in full)")
"active"
>>> group("CCNC1(c2cccs2)CCCCC1=O (stereo not given)")
"inactive"
>>> group("NC(N)=NOCC[C@H](N)C(=O)O")
"inactive"
>>> group("C[C@]12CC[C@H]3[C@@H](CCC4=C(O)C(=O)CC[C@@H]43)[C@@H]1CC[C@@H]2OC(=O)CCC1CCCC1")
"inactive"
>>> group("CC(=O)OO")
"inactive"
>>> group("NCCc1c[nH]c2ccc(C(N)=O)cc12")
"inactive"
>>> group("CCN(CCCl)Cc1ccccc1Br")
"inactive"
>>> group("CCCN(CCC)C1CCc2cccc(O)c2C1 (stereo not given)")
"inactive"
>>> group("CC(N)Cc1ccc(O)cc1 (stereo not given)")
"inactive"
>>> group("CC(C)(C)c1o[nH]c(=O)c1CC(N)C(=O)O (stereo not given)")
"inactive"
>>> group("CC1(C)S[C@@H]2[C@H](N)C(=O)N2[C@H]1C(=O)O")
"inactive"
>>> group("CC(C)(O)C1C2OC(=O)C1C1(O)CC3OC34C(=O)OC2C14C (stereo not given)")
"inactive"
>>> group("C=CCN1CC[C@]23c4c5ccc(O)c4O[C@H]2[C@@H](O)C=C[C@H]3[C@H]1C5")
"inactive"
>>> group("CC1(C(=O)O)C2CCC(O2)C1(C)C(=O)O (stereo not given)")
"inactive"
>>> group("C=CCC1(C(C)CCC)C(=O)N=C(S)NC1=O (stereo not given)")
"inactive"
>>> group("CN(N=O)c1cc(O)ccc1O")
"inactive"
>>> group("C[N+]1(C)CCOC(O)(c2ccc(-c3ccc(C4(O)C[N+](C)(C)CCO4)cc3)cc2)C1 (stereo not given)")
"inactive"
>>> group("NCC(CP(=O)(O)O)c1ccc(Cl)cc1 (stereo not given)")
"inactive"
>>> group("C#CCN[C@H](C)Cc1ccccc1")
"inactive"
>>> group("CC(C)(O)[C@@H]1[C@H]2OC(=O)[C@@H]1[C@]1(O)C[C@H]3O[C@]34C(=O)O[C@H]2[C@]14C")
"inactive"
>>> group("CN1C2CCC1CC(OC(c1ccccc1)c1ccc(Cl)cc1)C2 (stereo not given)")
"active"
>>> group("NC(=O)COc1c(F)cc(SCCNS(=O)(=O)c2ccccc2)cc1F")
"inactive"
>>> group("O=CC=O")
"inactive"
>>> group("CN(C)[C@H](Cc1ccccc1)c1ccccc1")
"inactive"
>>> group("O=c1[nH]cc(N(CCCl)CCCl)c(=O)[nH]1")
"inactive"
>>> group("O=C1CCO1")
"inactive"
>>> group("CN[C@H]1C[C@@H](N)[C@H](O)[C@@H](O[C@@H]2O[C@H](CO)[C@H](O)[C@@H]3OC4(O[C@H]23)O[C@H](C(N)CO)[C@H](O)[C@H](O)[C@H]4O)[C@@H]1O (stereo not given in full)")
"inactive"
>>> group("Ic1ccccc1CNC1C2CCN(CC2)C1C(c1ccccc1)c1ccccc1 (stereo not given)")
"active"
>>> group("C[C@H]1CCC[C@H](O)CCCCCc2cc(O)cc(O)c2C(=O)O1")
"inactive"
>>> group("CCN(CC)C(=O)N[C@H]1C[C@@H]2c3cccc4[nH]cc(c34)C[C@H]2N(C)C1")
"inactive"

meta.source: PubChem BioAssay (NCATS)
